- assay explanation: Acute toxicity test, single oral administration
- Assay type: in vivo
- experimental parameters: mouse, in vivo; male ICR mice, single administration per oral, 7-day observation
- Procedure: (1) Test Animal: SPF ICR mouse (2) Age of the Test Animal: 4 weeks from acquisition 5 weeks from the start of administration (3) Gender and Number of Test Animal: respective 18 he and she-mice (6 groups in each of he and she-mice, 3 mice per group) (4) Breeding Environment: Temperature 22±3° C., Relative humidity […], Illumination 150-300 Lux (5) Method of Administration: Single administration per oral (6) Items to be Observed: General symptoms, appearance, weight and autopsy of dead mice […]
readout type: LD50 at 7 day

Task: Could you share which LD50 at 7 day value was measured for C=CCN(CC=C)c1nc(N(CC=C)CC=C)nc(N2CCN(C(=O)n3ccnc3)CC2)n1 ?
Output: 2330 mg/kg

Task: # iterate: O=C(N1CCN(c2nc(NCC3CC3)nc(NCC3CC3)n2)CC1)n1ccnc1
Output: 354 mg/kg

Cited source for all entries: patent US20020019389A1
